Molecular target: Factor X (FX), P00742
Sequence (P00742 whole entry, looked up): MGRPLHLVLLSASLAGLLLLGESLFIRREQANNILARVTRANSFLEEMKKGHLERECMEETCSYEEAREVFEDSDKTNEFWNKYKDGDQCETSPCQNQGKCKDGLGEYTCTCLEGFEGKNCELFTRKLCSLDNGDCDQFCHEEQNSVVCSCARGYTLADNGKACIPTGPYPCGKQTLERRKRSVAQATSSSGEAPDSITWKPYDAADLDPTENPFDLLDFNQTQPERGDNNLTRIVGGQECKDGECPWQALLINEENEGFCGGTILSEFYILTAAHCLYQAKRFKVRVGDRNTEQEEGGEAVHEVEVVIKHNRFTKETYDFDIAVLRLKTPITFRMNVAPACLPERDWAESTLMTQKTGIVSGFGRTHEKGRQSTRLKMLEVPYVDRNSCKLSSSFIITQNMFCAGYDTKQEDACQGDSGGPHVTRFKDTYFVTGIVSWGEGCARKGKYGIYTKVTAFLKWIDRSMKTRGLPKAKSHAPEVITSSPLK
Quantity Name: kcat of FX activation by FIXa (Xase complex with FVIIIa, PC/PS vesicles, Ca2+)
Include the unit after the number when you answer.

Protein	Value Observed
FIXa-K247N/N249S/R318Y/R338E/R403E (protein) chain 1: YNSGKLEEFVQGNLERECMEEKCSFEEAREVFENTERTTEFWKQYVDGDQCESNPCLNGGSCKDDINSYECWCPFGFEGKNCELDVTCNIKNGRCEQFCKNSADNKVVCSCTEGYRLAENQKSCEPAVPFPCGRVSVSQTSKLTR chain 2: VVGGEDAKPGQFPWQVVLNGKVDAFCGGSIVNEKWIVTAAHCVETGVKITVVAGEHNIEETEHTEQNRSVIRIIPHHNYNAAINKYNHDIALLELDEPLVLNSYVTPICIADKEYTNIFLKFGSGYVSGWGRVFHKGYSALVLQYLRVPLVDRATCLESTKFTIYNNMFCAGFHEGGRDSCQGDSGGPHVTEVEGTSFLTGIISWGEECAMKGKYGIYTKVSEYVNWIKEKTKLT	10.5 s⁻¹

Turning now to a further protein:
Consider the protein shown here: FIXa-R318Y/R338E/T412A (protein) chain 1: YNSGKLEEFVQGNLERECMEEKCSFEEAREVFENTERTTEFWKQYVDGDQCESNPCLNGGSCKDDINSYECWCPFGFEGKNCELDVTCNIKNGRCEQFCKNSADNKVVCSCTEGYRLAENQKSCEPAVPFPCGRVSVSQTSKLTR chain 2: VVGGEDAKPGQFPWQVVLNGKVDAFCGGSIVNEKWIVTAAHCVETGVKITVVAGEHNIEETEHTEQKRNVIRIIPHHNYNAAINKYNHDIALLELDEPLVLNSYVTPICIADKEYTNIFLKFGSGYVSGWGRVFHKGYSALVLQYLRVPLVDRATCLESTKFTIYNNMFCAGFHEGGRDSCQGDSGGPHVTEVEGTSFLTGIISWGEECAMKGKYGIYTKVSRYVNWIKEKAKLT What is its recorded kcat of FX activation by FIXa (Xase complex with FVIIIa, PC/PS vesicles, Ca2+)?
7 s⁻¹
